# tgt: human Cereblon WT GST-tagged protein (Homo sapiens, UniProt Q96SW2)
# Construct: purchased CISBIO 64BDCRBNPEH
# Sequence (Q96SW2 whole entry): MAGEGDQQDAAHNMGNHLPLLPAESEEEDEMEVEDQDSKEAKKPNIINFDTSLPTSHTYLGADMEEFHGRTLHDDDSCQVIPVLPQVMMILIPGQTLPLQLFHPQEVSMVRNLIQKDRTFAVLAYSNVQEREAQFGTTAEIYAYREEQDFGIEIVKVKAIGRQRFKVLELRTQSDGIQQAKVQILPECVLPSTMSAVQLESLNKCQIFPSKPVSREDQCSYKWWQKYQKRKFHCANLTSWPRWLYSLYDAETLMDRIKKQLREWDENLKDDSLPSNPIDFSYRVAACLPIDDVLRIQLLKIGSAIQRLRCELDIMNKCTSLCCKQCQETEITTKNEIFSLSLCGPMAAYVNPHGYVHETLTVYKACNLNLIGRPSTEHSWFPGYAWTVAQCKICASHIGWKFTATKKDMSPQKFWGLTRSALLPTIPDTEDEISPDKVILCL
# method.notes: CRBN-binding affinity, HTRF (CEREBLON BINDING kit)
# measurement.context: read-out: Inhibition Rate at 0.5 µM (%)
Each entry below lists one item and its recorded inhibition at 0.5 µM value.

The cases that follow already have their inhibition at 0.5 µM on record.
1. O=C1CCC(N2Cc3c(CN4CCC(n5cc(NC(=O)c6cnn7ccc(N8C[C@H]9C[C@@H]8CO9)nc67)c(C(F)F)n5)CC4)cccc3C2=S)C(=O)N1 (stereo partly drawn) : 53 to 60%
2. CS(=O)(=O)c1cccc(CNc2nc(Nc3ccc(N4CCN(Cc5cccc6c5CN(C5CCC(=O)NC5=O)C6=S)CC4)cc3)ncc2C(F)(F)F)c1 (stereo not drawn) : 53 to 60%
3. O=C1CCC(N2Cc3cc(CN4CCC(n5cc(NC(=O)c6cnn7ccc(N8C[C@H]9C[C@@H]8CO9)nc67)c(C(F)F)n5)CC4)ccc3C2=S)C(=O)N1 (stereo partly drawn) : 60 to 80%

// lookup inhibition at 0.5 µM for O=C1CCC(N2Cc3cc(CN4CCN(c5ccn6c(n5)nc5ccccc56)CC4)ccc3C2=S)C(=O)N1 (stereo not drawn)
60 to 80%

For CC(C)(C)c1cnc(CSc2cnc(NC(=O)C3CCN(Cc4ccc5c(c4)CN(C4CCC(=O)NC4=O)C5=S)CC3)s2)o1 (stereo not drawn) then?
40 to 53%

Field entry: COc1cc(N2CCC(N3CCN(Cc4ccc5c(c4)CN(C4CCC(=O)NC4=O)C5=S)CC3)CC2)ccc1Nc1ncc(Cl)c(Nc2ccccc2P(C)(C)=O)n1 (stereo not drawn)
60 to 80%

---

Reported values of inhibition at 0.01 µM for individual entries
# Test system: RPMI-8226
# method.notes: Tumor cell proliferation inhibition (CellTiter-Meiluncell Luminescent Cell Viability Assay)
# Format: cell-based
# measurement.context: Homo sapiens, 10 nM, 96 hours, Table I-10, BCR-ABL inhibitors, read-out: Inhibition Rate at 10 nM (%)

1) O=C1CCC(N2Cc3cc(CN4CCN(C5CCN(c6ncc(C(=O)Nc7ccc(OC(F)(F)Cl)cc7)cc6-c6cc[nH]n6)CC5)CC4)ccc3C2=S)C(=O)N1 (stereo not shown) : 10 to 20%
2) Cc1ccc(NC(=O)c2ccc(CN3CCN(C)CC3)cc2)cc1Nc1nccc(-c2cccnc2)n1 : 5 to 10%
3) Cc1ccc(C(=O)Nc2ccc(CN3CCN(Cc4ccc5c(c4)CN(C4CCC(=O)NC4=O)C5=S)CC3)c(C(F)(F)F)c2)cc1C#Cc1cnc2cccnn12 (stereo not shown) : 20 to 30%

Note: attention shifts to another entry.
What value of inhibition at 0.01 µM has been reported for the following molecule? Cc1ccc(C(=O)Nc2ccc(CN3CCN(Cc4cccc5c4CN(C4CCC(=O)NC4=O)C5=S)CC3)c(C(F)(F)F)c2)cc1C#Cc1cnc2cccnn12 (stereo not shown)
5 to 10%

---

# tgt: human Cereblon WT GST-tagged protein (Homo sapiens)
# Construct: purchased CISBIO 64BDCRBNPEH
# method.notes: CRBN-binding affinity, HTRF (CEREBLON BINDING kit)
# measurement.context: read-out: Inhibition Rate at 2 µM (%)
Each item that follows carries a reported inhibition at 2 µM.

1) Cn1ncc(Cl)c1-c1cc(C(=O)N[C@@H](Cc2cccc(F)c2)CN2CCN(Cc3ccc4c(c3)CN(C3CCC(=O)NC3=O)C4=S)CC2)sc1Cl (stereo partly drawn) [GT-08897] : 60 to 80%
2) Cc1cc(Nc2ncc(Cl)c(Nc3ccccc3S(=O)(=O)C(C)C)n2)c(OC(C)C)cc1C1CCN(Cc2ccc3c(c2)C(=S)N(C2CCC(=O)NC2=O)C3)CC1 (stereo not drawn) [GT-08678] : 60 to 80%
3) Nc1nnc(-c2cc(F)ccc2O)cc1N1CCN(Cc2ccc3c(c2)CN(C2CCC(=O)NC2=O)C3=S)CC1 (stereo not drawn) [GT-08712] : 80 to 100%
4) Cn1ncc(-c2nc(NC3CCN(Cc4ccc5c(c4)CN(C4CCC(=O)NC4=O)C5=S)CC3)ncc2Cl)c1CC1CC1 (stereo not drawn) [GT-08682] : 80 to 100%
5) Cc1cc(-c2nc(C(=O)Nc3cc4oc(N5CCN(Cc6ccc7c(c6)CN(C6CCC(=O)NC6=O)C7=S)CC5)nc4nc3N3CC[C@@H](O)C3)co2)ccn1 (stereo partly drawn) [GT-05322] : 80 to 100%

What does the record list as inhibition at 2 µM for CC(=O)N1CCCN(c2nc(NCCc3cccs3)nc(N3CCN(Cc4ccc5c(c4)CN(C4CCC(=O)NC4=O)C5=S)CC3)n2)CC1 (stereo not drawn) [GT-08867] ?
80 to 100%

---

Quick reference for inhibition at 0.5 µM among some compounds
# System: H1975
# method.notes: Tumor cell proliferation inhibition (CellTiter-Meiluncell Luminescent Cell Viability Assay)
# Format: cell-based
# measurement.context: Homo sapiens, NCI-H1975, 500 nM, 96 hours, Table I-3, EGFR inhibitors, read-out: Inhibition Rate at 500 nM (%)

Some compounds with known inhibition at 0.5 µM results, for comparison:
1. O=C1CCC(N2Cc3c(CN4C[C@H]5C[C@@H]4CN5c4ccc(-c5cc(F)c6c(c5)C(=O)N(C(C(=O)Nc5nccs5)c5ncn7c5CCC7)C6)cc4)cccc3C2=S)C(=O)N1 (stereo partly shown) : 50 to 60%
2. C#Cc1cccc(Nc2ncnc3cc(OCCOC)c(OCCOC)cc23)c1 [erlotinib, Erlotinib, reference compound] : 0 to 5%
3. O=C1CCC(N2Cc3cc(CN4C[C@H]5C[C@@H]4CN5c4ccc(-c5cc(F)c6c(c5)C(=O)N(C(C(=O)Nc5nccs5)c5ncn7c5CCC7)C6)cc4)ccc3C2=S)C(=O)N1 (stereo partly shown) : 50 to 60%

Need inhibition at 0.5 µM of O=C1CCC(N2Cc3ccc(CN4C[C@H]5C[C@@H]4CN5c4ccc(-c5cc(F)c6c(c5)C(=O)N(C(C(=O)Nc5nccs5)c5ncn7c5CCC7)C6)cc4)cc3C2=S)C(=O)N1 (stereo partly shown) , thanks.
50 to 60%

---

Measured inhibition at 2 µM by item
# tgt: human Cereblon WT GST-tagged protein (Homo sapiens)
# Construct: purchased CISBIO 64BDCRBNPEH
# method.notes: CRBN-binding affinity, HTRF (CEREBLON BINDING kit)
# measurement.context: read-out: Inhibition Rate at 2 µM (%)

Bench note: what inhibition at 2 µM did COc1cc(N2CCC(N(C)Cc3ccc4c(c3)C(=S)N(C3CCC(=O)NC3=O)C4)CC2)ccc1Nc1ncc(Cl)c(Nc2ccccc2P(C)(C)=O)n1 (stereo not drawn) show?
80 to 100%

// next record CC(C)(O)c1cc2nc(C3CCN(Cc4ccc5c(c4)CN(C4CCC(=O)NC4=O)C5=S)CC3)oc2cc1NC(=O)c1cccc(C(F)(F)F)n1 (stereo not drawn)
80 to 100%

Request: COc1cc(N2CCN(Cc3cccc4c3CN(C3CCC(=O)NC3=O)C4=S)CC2)ccc1Nc1ncc(Cl)c(Nc2ccccc2P(C)(C)=O)n1 (stereo not drawn)
80 to 100%

---

# tgt: human Cereblon WT GST-tagged protein (Homo sapiens)
# Construct: purchased CISBIO 64BDCRBNPEH
# method.notes: CRBN-binding affinity, HTRF (CEREBLON BINDING kit)
# measurement.context: read-out: Inhibition Rate at 0.5 µM (%)
assay.endpoint: inhibition at 0.5 µM

1. COc1cc2nn(C3CCN(Cc4cccc5c4CN(C4CCC(=O)NC4=O)C5=S)CC3)cc2cc1NC(=O)c1cccc(C(F)(F)F)c1 (stereo not drawn) : 20 to 30%
2. CCc1cc2c(cc1N1CCC(N3CCN(Cc4ccc5c(c4)C(=S)N(C4CCC(=O)NC4=O)C5)CC3)CC1)C(C)(C)c1[nH]c3cc(C#N)ccc3c1C2=O (stereo not drawn) : 60 to 80%

Return reported inhibition at 0.5 µM; argument: Cc1cc(S(=O)(=O)N2CCN(Cc3ccc4c(c3)C(=S)N(C3CCC(=O)NC3=O)C4)CC2)ccc1Nc1ncc(Br)c(Nc2cccc(F)c2C(N)=O)n1 (stereo not drawn)
53 to 60%

Query CC(=O)c1c(C)c2cnc(Nc3ccc(N4CCN(Cc5ccc6c(c5)C(=S)N(C5CCC(=O)NC5=O)C6)CC4)cn3)nc2n(C2CCCC2)c1=O (stereo not drawn) next
40 to 53%

Now give it for Cc1ccsc1C(=O)n1nc(Nc2ccc(S(=O)(=O)N3CCN(Cc4cccc5c4CN(C4CCC(=O)NC4=O)C5=S)CC3)cc2)nc1N (stereo not drawn) too.
40 to 53%

How about O=C1CCC(N2Cc3c(CN4CCN(C5CCN(c6ncc(C(=O)Nc7ccc(OC(F)(F)Cl)cc7)cc6-c6cc[nH]n6)CC5)CC4)cccc3C2=S)C(=O)N1 (stereo not drawn) ?
40 to 53%

---

Listed here are compounds together with their documented inhibition at 0.01 µM.
# System: RPMI-8226
# method.notes: Tumor cell proliferation inhibition (CellTiter-Meiluncell Luminescent Cell Viability Assay)
# Format: cell-based
# measurement.context: Homo sapiens, 10 nM, 96 hours, Table I-3, EGFR inhibitors, read-out: Inhibition Rate at 10 nM (%)

Please review the following examples before continuing.
1) COC1CCN(c2nccc(Nc3cc4c(cn3)c(N3CCN(Cc5ccc6c(c5)C(=S)N(C5CCC(=O)NC5=O)C6)CC3)nn4C(C)C)n2)CC1 (stereo not shown) : 30 to 40%
2) COc1cc(N2CCC(N(C)Cc3ccc4c(c3)C(=S)N(C3CCC(=O)NC3=O)C4)CC2)c(C)cc1Nc1ncc(Br)c(Nc2ccc3nccnc3c2P(C)(C)=O)n1 (stereo not shown) : 20 to 30%
3) C#Cc1cccc(Nc2ncnc3cc(OCCOC)c(OCCOC)cc23)c1 [erlotinib, Erlotinib, reference compound] : 20 to 30%

What value of inhibition at 0.01 µM has been recorded for this entry: COc1cc(N2CCC(N3CCN(Cc4ccc5c(c4)C(=S)N(C4CCC(=O)NC4=O)C5)CC3)CC2)c(C)cc1Nc1ncc(Br)c(Nc2ccc3nccnc3c2P(C)(C)=O)n1 (stereo not shown)
30 to 40%
